- PROTOCOL DETAILS: yeast display, Sf9 membrane polyspecificity reagent, FACS + sequencing; frameworks hold sequencing errors
ENDPOINT: polyreactivity (PSR sort gate)

Some solved cases for reference:
ITEM SEQUENCE	polyreactivity (PSR sort gate)
QVQLVESGGGLVQAGGSLRLSCAASGSIFNYYAMGWYRQAPGKVRELVATISSGGNTKFADSVKGRFTISRDNAKNTVYLQMKSLKPEDTAVYFCGARWQHSGYRDRYCYDYWGQGTQVTVSS	low polyreactivity
QVQLVESGGGLVQAGGSLRLSCAASGRIFYSNAMGWYRQAPGKERELVAAISWSTGSTYYADSVKGRFTISRDHAKNTVYLQMNSLKPEDTAVYYCYKDDAQTRSFASTWYDYWGQGTQVTVSS	high polyreactivity
QVQLVESAGGLVPAGGSLRLSCAASGSIIITKAMGWYRQAPGKERELVAAISWTDDITYYADSVKGRFTISRDNAKNTVYLQMNSLKPEDTAVYYCAAEETSYAYDYWGQGTQVTVSS	low polyreactivity
QVQLVESGGGLVQAGGSLRLSCAASGLTFPSNAMGWYRPAPGKERELVAAISKRGGRTYYADSVKGRFTISRDNAKNTVYLQMNSLKPEDTAVYYCATPYAYPGTVQYAGYNYWGQGTQVTVSS	high polyreactivity
QVQLVESGGRLVQAGGSLRLSCAASGSIFRSYAMGWYRQAPGKERELVATISSSTGSTYYADSVKGRFTISRDNAKNTVYLQRNSLKPEDTAVYYCNAQRRWSIYGYFYYWGQGTQVTVSS	high polyreactivity

[Q] Reported polyreactivity (PSR sort gate), sequence `QVQLVESGGGLVQAGGSLRLSCAASGSTIPLYAMGWYRQAPGKERELVAAISRRGGRTYYADSVKGRFTISRDNAKNTVYLQMNSLKPEDTAVYYCATAVGSRVDYWGQGTQVTVSS` : ____
[A] high polyreactivity

[Q] Another: `QVQLVESGGGLVQAGGSLRLSCAASGSIFGYYAMGWYRQAPGKERELVASIRRGSSTNYADSVKGRFTISRDNAKHTVYLQMNSLKPEDTAVYYCNAVLLSYDGRGYSNLYDYWGQGTQVTVSS`
[A] low polyreactivity

[Q] Another: `QVQLVESGGGLVQAGGSLRISCAASGSIFRWNAMGWYRQAPGKERELVAAINWSGGSTYYADSVKGRFTISRDNAKNTVYLQMNSLKPEDTAVYYCAVDYWSGITWVEYWGQGTQVTVSS`
[A] high polyreactivity

[Q] Another: `QVQLVESGGSLVQAGGSLRVSCAASRSIFEHYAMGWYRQAHGKERELVATISSASRTHYADSVKGRFTISRDNAKNTVYLQRNSLKREDTAVYYCAARLYYVWYAPYYYWGQGTQVSVSS`
[A] high polyreactivity

[Q] Another: `QVQLVESGGGLVQAGVILRLSCAASGSTFSLYAMGWYRKPPGKERELVAAISWSDGSTYYADSVKGRFTISRDNAKITVYLQMNSLKAEDTAVSYFANASSFAYYRFGYWGQVTQVTVSS`
[A] low polyreactivity

[Q] Another: `QVQLVESGGGLVQAGGSLRLSCAASGYFDRNAMGWDRQAPGKERELVAAITVGGSTNYADSVKGRFTISRDNAKNSVYVQMNSLKPEDTAVYYCAADRGHTILHGGYWGQGTQVTVSS`
[A] low polyreactivity
